test: Biodistribution of technetium-labelled peptides; assay type: in vivo, CD1 mice; settings: CD1, bone, iv, 140 ug/mouse, total radioactivity; 140 μg/mouse; 1 hour; read-out: injected activity in Bone
Residues, ends and D or L forms follow the SMILES beside them. *: point of attachment. X1 = Cc1nn(CCN(CCN)CCCC(=O)*)c(C)c1CC(=O)O
measure name: tissue uptake at 1 h (%ID/g)
Answers are plain numbers, in %ID/g.

Task: Please list tissue uptake at 1 h recorded for the compound CC[C@H](C)[C@H](NC(=O)CNC(=O)[C@H](C)NC(=O)CCCN(CCN)CCn1nc(C)c(CC(=O)O)c1C)C(=O)N[C@@H](CC(C)C)C(=O)N[C@@H](CCCCN)C(=O)N[C@@H](CCCNC(=N)N)C(=O)N[C@@H](Cc1c[nH]c2ccccc12)C(=O)O [^99mTc(CO)3-Pz^1-pepH3, metal not drawn] (X1-AGILKRW-OH; C-terminus assumed)
Output: 0.19

The measurements presented in this section are drawn from patent US10654917B2.
